System: CD2F1 mice, L1210 leukemia ip, survival T/C
procedure.details: NCI In Vivo Anticancer Drug Screen. Data for tumor model L1210 Leukemia (intraperitoneal) in CD2F1 (CDF1) mice
experimental.setup: endpoint: mean survival time; dose: 25.0 mg/kg/injection; schedule: Q04DX002 (ip); vehicle: saline with Tween-80; higher = longer survival
Protocol: The antitumor activity of compounds was measured in mice bearing transplantable tumors. Survival or tumor size were measured and the results are expressed as the measurement made in the treated group (T) divided by the measurement made in the vehicle treated control group (C). The tumor model used in this assay is L1210 Leukemia (intraperitoneal) in CD2F1 (CDF1) mice
Toxic doses and inconclusive results are not listed.
observed.property: T/C

The following molecules have reported results that may help.
{"molecule": "NNc1ccccc1F", "target": "CD2F1 mice, L1210 leukemia ip, survival T/C", "observed.result": "97 % of control"}
{"molecule": "CCN(CC)CCOc1ccc(C2=CC3(CCCCC3)c3ccccc32)cc1", "target": "CD2F1 mice, L1210 leukemia ip, survival T/C", "observed.result": "98 % of control"}
{"molecule": "CC(=O)CC(=O)Nc1nccs1", "target": "CD2F1 mice, L1210 leukemia ip, survival T/C", "observed.result": "110 % of control"}
{"molecule": "CCOC(=O)c1ccc(NC(=O)Oc2cc3ccccc3cc2C(=O)Nc2ccccc2)cc1", "target": "CD2F1 mice, L1210 leukemia ip, survival T/C", "observed.result": "97 % of control"}
{"molecule": "Oc1ccccc1C=NCC1CCCC[N-]1.Oc1ccccc1C=NCC1CCCC[N-]1.[Ni+2] (configuration not stated)", "target": "CD2F1 mice, L1210 leukemia ip, survival T/C", "observed.result": "101 % of control"}

Dear colleague, could you please provide T/C for the molecules listed below?
1. c1ccc(OCC2(N3CCCCC3)CCCC2)cc1
2. CC(=Nc1ccccc1)C1=C(O)C(Cc2ccccc2)NC1=O (configuration not stated)

Response:
103 % of control
103 % of control
